Origin of values: ChEMBL document CHEMBL2363022

system: Schistosoma mansoni; assay type: functional; set-up: scale not given here
attribute-measured: Toxicity
Returns: the value as a bare number; no unit string appended.

Determine from records and report Toxicity for Cc1ccc(Nc2nc(-c3ccccn3)cs2)cc1
0

Determine from records and report Toxicity for COc1cc(-c2nc(-c3ccc(Sc4ccccc4)cc3)c(-c3ccccc3)[nH]2)cc(OC)c1O
0

Determine from records and report Toxicity for CCOc1ccc(CN2CCN(CC(O)COc3ccc(OCC(O)CN4CCN(Cc5ccc(OCC)cc5)CC4)cc3)CC2)cc1 (centres undefined)
3

Determine from records and report Toxicity for O=C(NC1CCN(Cc2ccccc2)CC1)c1cc(-c2ccncc2)nc2ccc(Cl)cc12
0

Determine from records and report Toxicity for CCOc1ccccc1CN1CCc2nc3cc(C(C)(C)C)nn3c(O)c2C1
0

Determine from records and report Toxicity for COc1ccc(C(O)(CCC(C)C)C(CN2CCOCC2)c2ccc(Cl)cc2)cc1.Cl (centres undefined)
0

Determine from records and report Toxicity for Cc1ccc2c(C)nc(Nc3nc(C)cc(-c4ccccc4)n3)nc2c1
0

Determine from records and report Toxicity for COc1cc(C(=O)Nc2nc3c(cc4c5c(cccc53)CC4)s2)cc(OC)c1OC
0

Determine from records and report Toxicity for Cc1ccccc1OCCSc1nc2ccc(NC(=O)c3cccs3)cc2s1
0

Determine from records and report Toxicity for CN1CCN(c2nc(Nc3ccc(O)cc3)nc3ccccc23)CC1.Cl
0

Determine from records and report Toxicity for Cc1cccc(Nc2nc(N)c3ccccc3n2)c1.Cl
2

Determine from records and report Toxicity for O=C(Nc1ccc(F)c(Cl)c1)Nc1ccc(Cl)c(Cl)c1
3

Determine from records and report Toxicity for Cc1cc(NC(=O)c2ccc(-c3ccccc3)cc2)no1
0

Determine from records and report Toxicity for CCOc1cc(CNC(C)C(O)c2ccccc2)cc(Cl)c1OCC (centres undefined)
0

Determine from records and report Toxicity for CC(C)(C)C(=O)Nc1ccc(C(=O)Nc2cccc(-c3nc4ccccc4[nH]3)c2)cc1
0

Determine from records and report Toxicity for Cc1cc(Nc2ccc(OCc3ccccc3)cc2)nc2cc(O)ccc12
2

Determine from records and report Toxicity for CCOC(=O)c1c(C)n(-c2ccc(Cl)cc2)c2ccc(OC(=O)C=Cc3ccccc3)cc12
0

Determine from records and report Toxicity for COc1ccc(N2CCN(C(CNC(=O)CC(C)(C)C)c3ccc4c(c3)OCO4)CC2)cc1 (centres undefined)
0

Determine from records and report Toxicity for CCCn1c(=N)c(C(=O)NC2CCCCC2)cc2c(=O)n3cccc(C)c3nc21
0

Determine from records and report Toxicity for O=C(NCc1ccco1)C1CCN(S(=O)(=O)c2ccc(Br)cc2)CC1
0

Determine from records and report Toxicity for O=C(Nc1ccc(-c2nc3ccccc3[nH]2)cc1)c1ccc(Cl)c(Cl)c1
0

Determine from records and report Toxicity for CC1=C(CC(=O)c2cccc([N+](=O)[O-])c2)C(=O)c2ccccc2C1=O
0

Determine from records and report Toxicity for C=CCc1c(C)nc2ccccc2c1O
0

Determine from records and report Toxicity for COc1cc(SC)ccc1C(=O)N1CCCC(C)C1 (centres undefined)
0

Determine from records and report Toxicity for Cc1ccc(Nc2nc(NCCO)c3ccccc3n2)cc1C
1

Determine from records and report Toxicity for Br.Cc1ccc(C)c(-c2csc(Nc3ccc(C)c(C)c3)n2)c1
0

Determine from records and report Toxicity for CCOc1ccc(N2C(N)=NC(N)=NC2(C)C)cc1.Cl
0

Determine from records and report Toxicity for COc1ccc(-c2c(C)nn3c(N)c(C#N)cnc23)cc1OC
1

Determine from records and report Toxicity for COCCN(C(=O)Cc1cccs1)C(C(=O)NCc1ccc(OC)cc1)c1ccc(C(C)C)cc1 (centres undefined)
0

Determine from records and report Toxicity for CCOc1cccc2sc(N(Cc3cccnc3)C(=O)C3CCCCC3)nc12
0

Determine from records and report Toxicity for CCN1CCN(c2c(C(=O)c3ccccc3)cnc3cc(OC)c(OC)cc23)CC1
0

Determine from records and report Toxicity for O=C1CC(O)(C(F)(F)C(F)(F)F)Oc2ccccc21 (centres undefined)
0

Determine from records and report Toxicity for CC1CCCCN1CCCNC(=O)c1ccc2c(c1)sc1nc(-c3ccc(F)cc3)cn12 (centres undefined)
2

Determine from records and report Toxicity for Cl.Oc1ccccc1CNCC12CC3CC(CC(C3)C1)C2
0

Determine from records and report Toxicity for COc1ccc(-c2cc(=O)oc3c4c(ccc23)OCN(Cc2ccc(F)cc2)C4)cc1
0

Determine from records and report Toxicity for Cl.N=c1n(CCN2CCCCC2)c2ccccc2n1CC(O)c1cccc(Br)c1 (centres undefined)
2

Determine from records and report Toxicity for COc1ccccc1NC1=C(N2CCCCC2)C(=O)c2ccccc2C1=O
4

Determine from records and report Toxicity for Cc1[nH]c(-c2ccc(F)cc2)cc1C(=O)NC1CCN(Cc2ccccc2)CC1
0

Determine from records and report Toxicity for Cc1cc(=O)oc2c1ccc1oc(C(=O)c3ccccc3)c(C)c12
0

Determine from records and report Toxicity for CCOc1ccc2nc(C)cc(Nc3ccc(N(C)C)cc3)c2c1.Cl
2

Determine from records and report Toxicity for COc1ccc(-c2nonc2NC(=O)c2cccc(Cl)c2)cc1OC
0

Determine from records and report Toxicity for COc1ccc(C2Sc3ccccc3N=C3C2=C(O)c2ccccc23)cc1 (centres undefined)
0

Determine from records and report Toxicity for O=C1c2ccccc2C2=Nc3ccccc3SC(c3cccc(F)c3)C12 (centres undefined)
1

Determine from records and report Toxicity for COc1ccc(-c2nc(NC(=O)CS(=O)(=O)c3ccc(F)cc3)sc2C)cc1
0
